Species on record: Rattus norvegicus
assayDetails: DrugMatrix - Regimen: Daily Repeat
Format: toxicity, organism-based, Sprague-Dawley
Parameters: regimen Daily Repeat, gender Male, age 6-8 weeks
testParameters: in vivo, ip, 8 mg/kg, 120 h, tissue Blood, route intraperitoneal, dose level High, time 5 day, vehicle 100 % SALINE

substance | unitString | ABSOLUTE MONOCYTE
GOLD SODIUM THIOMALATE | cells/µL | 260

---

Organism: Rattus norvegicus
assayDetails: DrugMatrix - Regimen: Daily Repeat
Type: toxicity, organism-based, Sprague-Dawley
Design: regimen Daily Repeat, gender Male, age 6-8 weeks
testParameters: in vivo, ip, 160 mg/kg, 120 h, tissue Blood, route intraperitoneal, dose level High, time 5 day, vehicle 100 % SALINE

compound | unitString | ABSOLUTE MONOCYTE
NCC[C@H](O)C(=O)N[C@@H]1C[C@H](N)[C@@H](O[C@H]2O[C@H](CN)[C@@H](O)[C@H](O)[C@H]2O)[C@H](O)[C@H]1O[C@H]1O[C@H](CO)[C@@H](O)[C@H](N)[C@H]1O [AMIKACIN] | cells/µL | 130
